experimentalDetails: shake flask on a mixture of 185; loss from the water phase only; LC-QTOF peak areas
reportedConditions: room
resultType: log partition dichloromethane / HPLC water, unbuffered, traces of methanol / DMSO

Here is how some compounds turned out for log partition dichloromethane / HPLC water, unbuffered, traces of methanol / DMSO.
CCCCNS(=O)(=O)c1ccc(C)cc1 ... 1.556 log10
c1coc(-c2nc3ccccc3[nH]2)c1 ... 1.187 log10
Oc1c(Cl)cc(Cl)c(Cl)c1Cc1c(O)c(Cl)cc(Cl)c1Cl ... 1.996 log10
Cc1cc2c3c(c1)C(c1ccccc1)=N[C@@H](NC(=O)c1ccncc1)C(=O)N3CC2 ... 2.144 log10
Oc1c(Cl)cc(Cl)cc1Sc1cc(Cl)cc(Cl)c1O ... 1.541 log10
CCOc1ccc2[nH]cc(C(=O)NCc3ccccc3)c(=O)c2n1 ... 1.249 log10

Data request, read-out log partition dichloromethane / HPLC water, unbuffered, traces of methanol / DMSO, for "CO/C=C(/C(=O)OC)c1ccccc1Oc1cc(Oc2ccccc2C#N)ncn1"
2.944 log10

// query log partition dichloromethane / HPLC water, unbuffered, traces of methanol / DMSO value for entry "O=C(c1ccccc1)c1ccc(O)cc1O"
1.235 log10

Recorded log partition dichloromethane / HPLC water, unbuffered, traces of methanol / DMSO of "O=C(Nc1ccccc1-c1ccc(Cl)cc1)c1cccnc1Cl" , please.
2.321 log10

Consider the compound "CO/N=C(/C1=NOCCO1)c1ccccc1Oc1ncnc(Oc2ccccc2Cl)c1F" and give its measured log partition dichloromethane / HPLC water, unbuffered, traces of methanol / DMSO.
2.488 log10

Requested field: log partition dichloromethane / HPLC water, unbuffered, traces of methanol / DMSO. Item: "CN(C1CCCCC1)S(=O)(=O)c1ccccc1N"
0.1793 log10

---

// reported log partition cyclohexane / HPLC water, unbuffered, traces of methanol / DMSO for each item listed
experimentalDetails: shake flask on a mixture of 185; loss from the water phase only; LC-Orbitrap peak areas
reportedConditions: room
Use log10 as the unit, but write only the number.

Take a look at these entries with their results.
COc1ccccc1/C=C/C=O ... -0.3102
FC(F)C(F)(F)OCC(Cn1cncn1)c1ccc(Cl)cc1Cl (stereo not drawn) ... 0.9109
O=C1C=CC(=O)N1c1ccc(Cc2ccc(N3C(=O)C=CC3=O)cc2)cc1 ... -0.523

Requested field: log partition cyclohexane / HPLC water, unbuffered, traces of methanol / DMSO. Item: "CN(C)c1ccc(Cc2ccc(N(C)C)cc2)cc1"
0.5577

Can you look up the measured log partition cyclohexane / HPLC water, unbuffered, traces of methanol / DMSO of "Oc1c(Cl)ccc(Cl)c1Cl" for me?
0.2263

Report log partition cyclohexane / HPLC water, unbuffered, traces of methanol / DMSO for CCOc1ccc2c(c1)C(C)CC(C)(C)N2 (stereo not drawn) please.
0.1355

---

experimentalDetails: shake flask on a mixture of 185; loss from the water phase only; LC-Orbitrap peak areas
reportedConditions: room
resultType: log partition oleylalcohol / HPLC water, unbuffered, traces of methanol / DMSO (log10)
Just the number please, in log10, no unit attached.

Look over these answered cases.
CCOC(=O)CC(=O)c1ccccc1 ... -0.4257
Cc1ccc(N)c(S(=O)(=O)O)c1 ... -0.05327

Suppose we examine the molecule "CC(C)(C)c1ccc(O)c(O)c1" ; what log partition oleylalcohol / HPLC water, unbuffered, traces of methanol / DMSO value has been reported?
-0.3469

What value of measured log partition oleylalcohol / HPLC water, unbuffered, traces of methanol / DMSO is listed for "CCCOC(=O)c1ccc(C(=O)OCCC)nc1" ?
1.396

For "CC(C)Nc1nc(N)nc(Cl)n1" , what is its reported log partition oleylalcohol / HPLC water, unbuffered, traces of methanol / DMSO?
1.559

Which log partition oleylalcohol / HPLC water, unbuffered, traces of methanol / DMSO is reported for this molecule? "Cc1cc(C)nc(NS(=O)(=O)c2ccc(N)cc2)n1"
-0.3433

Report log partition oleylalcohol / HPLC water, unbuffered, traces of methanol / DMSO for "NC(=O)N/N=C/c1ccc([N+](=O)[O-])o1" please.
0.1785

---

experimentalDetails: shake flask on a mixture of 185; loss from the water phase only; LC-Orbitrap peak areas
reportedConditions: room
resultType: log partition 1-octanol / HPLC water, unbuffered, traces of methanol / DMSO (log10)
Please reply with the bare figure in log10 and do not write the unit itself.

As a guide, the following entries are already answered.
CN/C(=N/[N+](=O)[O-])NCC1CCOC1 (stereo not drawn) ... 0.006708
NC(=O)N/N=C/c1ccc([N+](=O)[O-])o1 ... 1.712
CCOc1ccc2c(c1)C(C)CC(C)(C)N2 (stereo not drawn) ... 1.166

Look up log partition 1-octanol / HPLC water, unbuffered, traces of methanol / DMSO for this compound: "CN1COCN(Cc2cnc(Cl)s2)C1=N[N+](=O)[O-]"
-0.1952

Quick one: log partition 1-octanol / HPLC water, unbuffered, traces of methanol / DMSO for CCCCC(CC)COC(=O)c1ccccc1C(=O)O (stereo not drawn) ?
-0.191

Recorded log partition 1-octanol / HPLC water, unbuffered, traces of methanol / DMSO for "CCCCc1ccc(O)cc1" , please?
-0.1262

Reported log partition 1-octanol / HPLC water, unbuffered, traces of methanol / DMSO, compound "CC(C)(C#N)Nc1nc(Cl)nc(NC2CC2)n1" : ____
2.353

Looking for the measured log partition 1-octanol / HPLC water, unbuffered, traces of methanol / DMSO of "CC(C)c1cccc(O)c1" , can you help?
-0.1403

// log partition 1-octanol / HPLC water, unbuffered, traces of methanol / DMSO lookup, key: "O=P(OC(CCl)CCl)(OC(CCl)CCl)OC(CCl)CCl"
0.3708

What value of log partition 1-octanol / HPLC water, unbuffered, traces of methanol / DMSO has been reported for the following compound? CCNC(=O)C1CC(C)CCC1C(C)C (stereo not drawn)
0.07926

Item under review: "OCCN(CCO)c1ccccc1" . Reported log partition 1-octanol / HPLC water, unbuffered, traces of methanol / DMSO?
0.493

Looking for the measured log partition 1-octanol / HPLC water, unbuffered, traces of methanol / DMSO of "CC(C)Nc1nc(N)nc(Cl)n1" , can you help?
1.201

Any idea what its log partition 1-octanol / HPLC water, unbuffered, traces of methanol / DMSO is? The compound is "c1ccc2[nH]c(-c3cscn3)nc2c1"
1.814

---

experimentalDetails: shake flask on a mixture of 185; loss from the water phase only; LC-QTOF peak areas
reportedConditions: room
If the reported log partition oleylalcohol / HPLC water, unbuffered, traces of methanol / DMSO equals or exceeds 2 log10, assign 1 (yes). If not, assign 0 (no).

CC(C)N1C(=O)c2ccccc2NS1(=O)=O ... 0 (no)
Cn1cnc([N+](=O)[O-])c1Sc1ncnc2nc[nH]c12 ... 0 (no)
O=C(c1ccccc1)c1ccc(O)cc1O ... 0 (no)
O=S(=O)(O)C(F)(F)F ... 0 (no)
CN/C(=N/[N+](=O)[O-])NCC1CCOC1 (stereo not drawn) ... 0 (no)
CCC(C)(CC)c1cc(NC(=O)c2c(OC)cccc2OC)on1 ... 1 (yes)
OCCN(CCO)c1ccccc1 ... 0 (no)
Cc1oncc1C(=O)Nc1ccc(C(F)(F)F)cc1 ... 1 (yes)
CN(C1CCCCC1)S(=O)(=O)c1ccccc1N ... 0 (no)
CCCCNS(=O)(=O)c1ccc(C)cc1 ... 0 (no)

Does log partition oleylalcohol / HPLC water, unbuffered, traces of methanol / DMSO meet or surpass 2 log10 for "Cc1cc2c3c(c1)C(c1ccccc1)=N[C@@H](NC(=O)c1ccncc1)C(=O)N3CC2" ?
1 (yes)

---

experimentalDetails: shake flask on a mixture of 185; loss from the water phase only; LC-QTOF peak areas
reportedConditions: room
Classification field: class 1 = log partition n-hexane / HPLC water, unbuffered, traces of methanol / DMSO at or over -1 log10; class 0 = log partition n-hexane / HPLC water, unbuffered, traces of methanol / DMSO under -1 log10.

Recorded results for 5 compounds are shown here.
CC(C)N1C(=O)c2ccccc2NS1(=O)=O ... class 0
OCCN(CCO)c1ccccc1 ... class 0
Oc1c(Cl)cc(Cl)c(Cl)c1Cc1c(O)c(Cl)cc(Cl)c1Cl ... class 1
CCOc1ccc2[nH]cc(C(=O)NCc3ccccc3)c(=O)c2n1 ... class 0
Cc1cc(C)nc(NS(=O)(=O)c2ccc(N)cc2)n1 ... class 0

Now for another entry.
Kindly determine if log partition n-hexane / HPLC water, unbuffered, traces of methanol / DMSO recorded for CN/C(=N/[N+](=O)[O-])NCC1CCOC1 (stereo not drawn) is above or exactly -1 log10.
class 0

---

experimentalDetails: shake flask on a mixture of 185; loss from the water phase only; LC-QTOF peak areas
reportedConditions: room
resultType: log partition butyl acetate / HPLC water, unbuffered, traces of methanol / DMSO (log10)
Number in log10, nothing else.

Cc1ccc([N+](=O)[O-])cc1S(=O)(=O)O ... 2.641
Cc1cc(C)nc(NS(=O)(=O)c2ccc(N)cc2)n1 ... -0.1162
CO/N=C(/C1=NOCCO1)c1ccccc1Oc1ncnc(Oc2ccccc2Cl)c1F ... 2.442

// query log partition butyl acetate / HPLC water, unbuffered, traces of methanol / DMSO value for entry "CC(C)N1C(=O)c2ccccc2NS1(=O)=O"
-1.026

What does the data say about its log partition butyl acetate / HPLC water, unbuffered, traces of methanol / DMSO? Entry: "C#CC(C)(C)NC(=O)c1cc(Cl)cc(Cl)c1"
2.368

For "O=C(c1ccccc1)c1ccc(O)cc1O" , what is its reported log partition butyl acetate / HPLC water, unbuffered, traces of methanol / DMSO?
2.368

Data provenance is paper PMC10569036.
